Biological target: T1, activated KLK8 (human KLK8, C-terminal His tag, pro-KLK8 activated with thermolysin) (UniProt O60259 33-260)
T1 chain: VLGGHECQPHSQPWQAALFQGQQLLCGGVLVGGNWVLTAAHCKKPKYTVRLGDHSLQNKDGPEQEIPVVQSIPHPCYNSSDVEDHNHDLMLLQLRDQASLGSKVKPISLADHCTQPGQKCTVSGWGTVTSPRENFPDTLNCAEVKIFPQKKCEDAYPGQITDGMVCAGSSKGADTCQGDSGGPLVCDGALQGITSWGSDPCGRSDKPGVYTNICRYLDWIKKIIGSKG
Assay: peptide substrate degradation inhibition
pIC50: −log10 of the molar value.
quantity kind: pIC50

binder | relational operator | test result
KLK1 inhibitory peptide K10062 (designed binder) GSGMKETAAAKFERQHMDSPDLGTDDDDKAMADIGSANSDPQFGLFSKYRTPNCDIYQVDRCWWASQPVCGSDMSTYANECTLCMKIREGGHNIKIIRNGPCGASAAA | < | 6.00
KLK4 inhibitory peptide K40001 (designed binder) GSGMKETAAAKFERQHMDSPDLGTDDDDKAMADIGSANSDPQFGLFSKYRTPNCRKYEYGVCQRTYLPVCGSDMSTYANECTLCMKIREGGHNIKIIRNGPCGASAAA | < | 6.00
KLK4/KLK8 inhibitory peptide K41043 (designed binder) GSGMKETAAAKFERQHMDSPDLGTDDDDKAMADIGSANSDPQFGLFSKYRTPNCRRYSIHGCNRMYAPVCGSDMSTYANECTLCMKIREGGHNIKIIRNGPCGASAAA | = | 8.28
KLK4/KLK8 inhibitory peptide K41046 (designed binder) GSGMKETAAAKFERQHMDSPDLGTDDDDKAMADIGSANSDPQFGLFSKYRTPNCGRYYRGWCFKSLEPVCGSDMSTYANECTLCMKIREGGHNIKIIRNGPCGASAAA | = | 6.55
